# system: T1, rhesus monkey KLB (+N-ter FLAG) (rhesus monkey, UniProt Q86Z14 53-992 (human entry))
# T1 construct: expressed from KLB cDNA on HEK293T cells and read by FACS
# T1 chain: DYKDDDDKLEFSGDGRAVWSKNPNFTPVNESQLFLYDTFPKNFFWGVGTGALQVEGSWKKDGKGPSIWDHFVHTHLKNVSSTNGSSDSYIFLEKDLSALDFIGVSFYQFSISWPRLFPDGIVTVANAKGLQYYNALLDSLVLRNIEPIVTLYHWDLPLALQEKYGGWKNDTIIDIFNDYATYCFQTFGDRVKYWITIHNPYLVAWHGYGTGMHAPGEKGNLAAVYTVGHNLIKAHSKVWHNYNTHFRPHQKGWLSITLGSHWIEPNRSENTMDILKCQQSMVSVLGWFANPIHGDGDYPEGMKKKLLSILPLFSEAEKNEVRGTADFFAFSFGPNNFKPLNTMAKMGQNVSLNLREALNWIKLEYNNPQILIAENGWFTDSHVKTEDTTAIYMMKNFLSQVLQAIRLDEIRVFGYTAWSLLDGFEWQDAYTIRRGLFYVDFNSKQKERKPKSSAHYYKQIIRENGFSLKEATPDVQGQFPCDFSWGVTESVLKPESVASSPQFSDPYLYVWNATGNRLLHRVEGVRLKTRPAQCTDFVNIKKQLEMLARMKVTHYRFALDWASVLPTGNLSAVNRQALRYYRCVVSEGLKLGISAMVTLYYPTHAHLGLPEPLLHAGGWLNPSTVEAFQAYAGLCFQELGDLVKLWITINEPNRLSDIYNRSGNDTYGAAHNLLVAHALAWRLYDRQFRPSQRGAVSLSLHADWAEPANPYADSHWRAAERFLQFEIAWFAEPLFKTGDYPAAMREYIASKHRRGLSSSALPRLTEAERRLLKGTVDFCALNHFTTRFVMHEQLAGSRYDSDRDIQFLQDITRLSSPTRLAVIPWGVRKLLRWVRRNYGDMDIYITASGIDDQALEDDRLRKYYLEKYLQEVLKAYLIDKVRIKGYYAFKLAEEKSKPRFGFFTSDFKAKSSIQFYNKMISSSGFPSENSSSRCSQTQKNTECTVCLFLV
# assay_method_text: FACS on transfected HEK293T cells
observed_property: binding result

>>> test_value("12A11 (antibody, V domains shown, murine hybridoma-derived anti-KLB antibody; also called KLBmAb2) VH: EVKFLESGGGLVQPGGSLRLSCAVSGIDFSRYWMSWVRQAPGKGLEWIGEISPDSSTINYTPSLKDKFVISRDNAKNTLYLQMSKVRSADTALYYCARPSPALDYWGQGTLVTVSA VL: DIVMTQSPATLSVTPGDRVSLSCRASQSISDYVYWYQQKSHESPRLLIIYASQSISGIPSRFSGSGSGSDFTLSINSVEPEDVGVYYCQNGHNFPYTFGGGTKLEIK")
"binds"
>>> test_value("6C1 (antibody, V domains shown, murine hybridoma-derived anti-KLB antibody; also called KLBmAb4) VH: QVQLQQSGDELMKPGASVKISCKVTGNTFSSYWIEWVKQRPGHGLEWIGEILPGSDSTKYVEKFKVKATFTADTSSNTAYMQLSSLTSEDSAVYYCARGGYHYPGWLVYWGQGTLVTVSA VL: DIVMTQSQKFMSTSVGDRVSVTCKASQNVDSYVAWYQQKAGQSPKPLIYSASYRFSGVPDRFTGSGSGTEFTLTISNVQSEDLAEYFCQQYNISPYTFGGGTKLEIK")
"binds"
>>> test_value("8C5 (antibody, V domains shown, murine hybridoma-derived anti-KLB antibody; also called KLBmAb1) VH: QVQLKQSGPGLVQPSQSLSVACTVSDFSLTTYGVHWVRQSPGKGLEWLGVIWSGGSTDYNAAFISRLTISKDNSKSQVFFKMNSLQTTDTAIYYCARDYGSTYVDAIDYWGQGTSVTVSS VL: DIVLTQSPTSLAVSLGQRATISCRASESVESYGNRYMTWYQQKPGQPPKLLIYRAANLQSGIPARFSGSGSRTDFTLTIDPVEADDVATYYCQQSNEDPWTFGGGTKVEIK")
"binds"
